- assayExplanation: RP, Thermo Scientific Acclaim RSLC 120 C18, 100 × 2.1 mm, 2.2 µm, 30 °C, 0.2 mL/min, estimated dead time 1.1 min; A: 90% water + 10% methanol + 0.01% formic acid + 5 mM ammonium formate, pH 3.61; B: methanol + 0.01% formic acid + 5 mM ammonium formate, pH 3.61; gradient (min/%B) 0/1 1/1 2/39 13/99.9 15/99.9 15.1/1 20.1/1
- conditions: stereoisomer not certain
parameterMeasured: LC retention time (min)
Give your result in min as a bare value.

What LC retention time value was documented for this molecule, CCCCc1c(C)nc(NCC)[nH]c1=O [Ethirimol] ?
8

What LC retention time value was documented for this molecule, CCCCCCCCCCCCCCCC[N+](C)(C)C [Hexadecyltrimethylammonium] ?
12.9

What LC retention time value was documented for this molecule, COc1ccc(CC(C)N)c(OC)c1OC (centres undefined) [TMA] ?
4.16

What LC retention time value was documented for this molecule, O=C1Nc2ccc(Cl)cc2C(c2ccccc2)=NC1O (centres undefined) [Oxazepam] ?
8.43

Each recorded value in this set is attributed to the RepoRT retention time repository (doi:10.1021/acs.analchem.2c02893).
